assay: NALP3 inhibitors retested in yeast, confirmation, luminescence, single concentration (AID 435006); conditions: yeast expressing human NALP3, luminescence; at 10 µM; active compounds read high
In all, about 1,300 compounds went through this assay and about 1,100 (85%) were called active. The set was probably picked from earlier hits. Not all results are given here.
READOUT: inhibition

The molecule listed as CCc1noc(C)c1C(=O)Nc1nc2ccc(OC)cc2s1 shows inhibition equal to 78.5% (active)

The molecule listed as CC(C)Sc1ncnc2c1cnn2-c1ccccc1 shows inhibition equal to 48.7% (active)

The molecule listed as CC(C)(c1ccccc1)c1ccc(OCCN)cc1 shows inhibition equal to 71.8% (active)

The molecule listed as CC1(C)CCSC(/C=C/c2ccccc2)=N1 shows inhibition equal to 87.4% (active)
